test system: HCC-2998 colon; test: NCI-60 one-dose screen, 48 h (100 = growth as untreated, 0 = no growth, -100 = all killed); conditions: 10 µM
The panel holds about 83,000 compounds, 20% with a hit somewhere; the sample as a whole holds those more often.
readout: growth (%)
// note: answer is a bare numeric in %

In the examples that follow, each entry is paired with its recorded growth.
[[record]]
molecule = "CCn1cc(C(=O)O)c(=O)c2cnc(N3CCCC3)nc21"
numericresult = 107

[[record]]
molecule = "Cc1[nH]nc2c1C(c1cnn(C)c1)C(C#N)=C(N)O2 (centres undefined)"
numericresult = 110

[[record]]
molecule = "N#Cc1ncc(-c2ccc(C(F)(F)F)cc2)c(NCc2cc(C(F)(F)F)cc(C(F)(F)F)c2)n1"
numericresult = 45


API: the following record is the query input.
Sample `Nc1cc2c(cc1Cl)-c1ccc([N+](=O)[O-])cc1/C2=N\O` , system: HCC-2998 colon. Its growth is 97.3
